measurementNotes: Cmax in Sprague-Dawley rat at 10 mg/kg, po by LC-MS/MS method
Type: ADME, organism-based
Parameters: dose 10 mg/kg, route oral
conditionSet: in vivo
measuredMetric: Cmax (ng/mL)
Give a bare numeral; the unit ng/mL is implied.

Quick one: Cmax of CNC(=O)Cn1cc(-c2cnc(N)c3c(-c4ccc(Oc5ccccc5)cc4)csc23)cn1 ?
856

---

Listed next: entries and their corresponding log10(IC50).
assayedSystem: Tyrosine-protein kinase BTK (Homo sapiens, UniProt Q06187)
Sequence (Q06187 whole entry): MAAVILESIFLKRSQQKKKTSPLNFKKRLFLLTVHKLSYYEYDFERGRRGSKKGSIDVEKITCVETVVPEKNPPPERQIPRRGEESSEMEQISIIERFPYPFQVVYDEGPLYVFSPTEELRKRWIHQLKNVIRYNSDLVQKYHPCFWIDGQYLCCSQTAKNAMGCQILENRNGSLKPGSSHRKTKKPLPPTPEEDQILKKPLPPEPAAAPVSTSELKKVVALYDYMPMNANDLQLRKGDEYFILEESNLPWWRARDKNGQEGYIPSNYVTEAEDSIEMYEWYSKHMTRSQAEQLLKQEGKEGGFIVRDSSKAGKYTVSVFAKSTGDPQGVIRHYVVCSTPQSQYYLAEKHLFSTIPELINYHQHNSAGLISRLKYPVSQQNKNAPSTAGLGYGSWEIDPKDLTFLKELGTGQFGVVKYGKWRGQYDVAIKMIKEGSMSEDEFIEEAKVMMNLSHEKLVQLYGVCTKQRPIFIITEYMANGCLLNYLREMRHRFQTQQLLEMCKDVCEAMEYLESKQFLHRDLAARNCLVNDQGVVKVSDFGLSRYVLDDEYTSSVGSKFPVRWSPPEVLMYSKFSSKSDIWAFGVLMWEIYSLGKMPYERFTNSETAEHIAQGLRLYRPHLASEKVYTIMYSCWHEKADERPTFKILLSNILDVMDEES
measurementNotes: Inhibition of human recombinant BTK incubated for 5 mins by HTRF kinase assay
# values: log10(IC50), units nM

Below, each entry is followed by its recorded log10(IC50) result.
Nc1ncc(-c2ccc(N3CCOCC3)cc2)c2scc(-c3ccc(Oc4ccccc4)cc3)c12 ... 3.36
CN(C)S(=O)(=O)n1cc(-c2cnc(N)c3c(-c4ccc(Oc5ccccc5)cc4)csc23)cn1 ... 2.72
CCn1cc(-c2cnc(N)c3c(-c4ccc(Oc5ccccc5)cc4)csc23)cn1 ... 2.25

Provide the documented log10(IC50) with Tyrosine-protein kinase BTK (Homo sapiens, UniProt Q06187) as the system for CNC(=O)Cn1cc(-c2cnc(N)c3c(-c4ccc(Oc5ccccc5)cc4)csc23)cn1
1.11

Provide the documented log10(IC50) with Tyrosine-protein kinase BTK (Homo sapiens, UniProt Q06187) as the system for Nc1ncc(-c2ccncc2)c2scc(-c3ccc(Oc4ccccc4)cc3)c12
3.29

Provide the documented log10(IC50) with Tyrosine-protein kinase BTK (Homo sapiens, UniProt Q06187) as the system for CC(=O)n1cc(-c2cnc(N)c3c(-c4ccc(Oc5ccccc5)cc4)csc23)cn1
2.66

Provide the documented log10(IC50) with Tyrosine-protein kinase BTK (Homo sapiens, UniProt Q06187) as the system for CNC(=O)Cn1cc(-c2cnc(N)c3c(-c4ccc(NC(=O)c5cccc(Cl)c5)cc4)csc23)cn1
2.61

Provide the documented log10(IC50) with Tyrosine-protein kinase BTK (Homo sapiens, UniProt Q06187) as the system for Nc1ncc(-c2cnn(Cc3ccccc3)c2)c2scc(-c3ccc(Oc4ccccc4)cc3)c12
2.84

Provide the documented log10(IC50) with Tyrosine-protein kinase BTK (Homo sapiens, UniProt Q06187) as the system for CNC(=O)Cn1cc(-c2cnc(N)c3c(-c4cccc(C(=O)Nc5ccccc5)c4)csc23)cn1
2.46

Provide the documented log10(IC50) with Tyrosine-protein kinase BTK (Homo sapiens, UniProt Q06187) as the system for Cn1cc(-c2cnc(N)c3c(-c4ccc(NC(=O)c5cccc(Cl)c5)cc4)csc23)cn1
2.62

Provide the documented log10(IC50) with Tyrosine-protein kinase BTK (Homo sapiens, UniProt Q06187) as the system for Nc1ncc(-c2ccco2)c2scc(-c3ccc(Oc4ccccc4)cc3)c12
2.88

Provide the documented log10(IC50) with Tyrosine-protein kinase BTK (Homo sapiens, UniProt Q06187) as the system for CCCCn1cc(-c2cnc(N)c3c(-c4ccc(Oc5ccccc5)cc4)csc23)cn1
2.59

Provide the documented log10(IC50) with Tyrosine-protein kinase BTK (Homo sapiens, UniProt Q06187) as the system for Nc1ncc(-c2cn[nH]c2)c2scc(-c3ccc(Oc4ccccc4)cc3)c12
3.02

Provide the documented log10(IC50) with Tyrosine-protein kinase BTK (Homo sapiens, UniProt Q06187) as the system for COCCCn1cc(-c2cnc(N)c3c(-c4ccc(Oc5ccccc5)cc4)csc23)cn1
2.45

Provide the documented log10(IC50) with Tyrosine-protein kinase BTK (Homo sapiens, UniProt Q06187) as the system for CNC(=O)Cn1cc(-c2cnc(N)c3c(-c4ccc(C(=O)Nc5ccccc5)cc4)csc23)cn1
2.14

Provide the documented log10(IC50) with Tyrosine-protein kinase BTK (Homo sapiens, UniProt Q06187) as the system for Cn1cc(-c2cnc(N)c3c(-c4ccc(Oc5ccccc5)cc4)csc23)cn1
2.03
